Sourced from patent US20200002434A1

Measurement target: T1, recombinant human ErbB2 extracellular domain (ErbB2-ECD) (human, UniProt P04626 23-652)
T1 construct: extracellular domain; Coated on plates or used biotin-labeled in solution (capture ELISA); also called Human ErbB2-ECD; rhErbB2
Assay info: capture ELISA, recombinant ErbB2-ECD
Readings of EC50 for the listed binders
Respond numerically; units are nM and should not be typed.

Use these answered entries as a reference point.
So what does the record say about EC50 for 5F12.v9 humanized antibody (antibody, V domains shown, VH.2/VL.v1, back mutations I48M/0) VH: EVQLVQSGAEVKKPGSSVKVSCKASGYTFTSYTMHWIRQAPGQGLEWMGYINPSSSYTNYNQNFKDRATLTADKSTSTAYMELSSLRSEDTAVYYCARASSYSLDYWGQGTLVTVSS VL: DIQMTQSPSSLSASVGDRVTITCKASQDINKYIAWYQHKPGKGPKLLIHSTSTLYPGIPSRFSGSGSGKDYTFTISSLQPEDIATYYCLQYDNLLWTFGQGTKVEIK ?
0.023

So what does the record say about EC50 for 5F12.v3 humanized antibody (antibody, V domains shown, VH.v1/VL.2, back mutations 0/G43A) VH: EVQLVQSGAEVKKPGSSVKVSCKASGYTFTSYTMHWIRQAPGQGLEWIGYINPSSSYTNYNQNFKDRATLTADKSTSTAYMELSSLRSEDTAVYYCARASSYSLDYWGQGTLVTVSS VL: DIQMTQSPSSLSASVGDRVTITCKASQDINKYIAWYQHKPGKAPKLLIHSTSTLYPGIPSRFSGSGSGKDYTFTISSLQPEDIATYYCLQYDNLLWTFGQGTKVEIK ?
0.026

So what does the record say about EC50 for 5F12.v6 humanized antibody (antibody, V domains shown, VH.v1/VL.5, back mutations 0/K69T) VH: EVQLVQSGAEVKKPGSSVKVSCKASGYTFTSYTMHWIRQAPGQGLEWIGYINPSSSYTNYNQNFKDRATLTADKSTSTAYMELSSLRSEDTAVYYCARASSYSLDYWGQGTLVTVSS VL: DIQMTQSPSSLSASVGDRVTITCKASQDINKYIAWYQHKPGKGPKLLIHSTSTLYPGIPSRFSGSGSGTDYTFTISSLQPEDIATYYCLQYDNLLWTFGQGTKVEIK ?
0.032

---
So what does the record say about EC50 for 5F12 chimera (antibody, V domains shown, also called 5F12 chimeric; 5F12 chimeric antibody) VH: QVQLQQSGAELARPGASVKMSCKASGYTFTSYTMHWIKQRPGQGLEWIGYINPSSSYTNYNQNFKDKATLTADKSSSTANMQLNSLTSEDSAVYYCARASSYSLDYWGQGTALTVSS VL: DIQMTQSPSSLSTSLGGKVTITCKASQDINKYIAWYQHKPGKGPRLLIHSTSTLYPGIPSRFSGSGSGKDYSFRITNLEPEDIATYYCLQYDNLLWTFGGGTKLGIR ?
0.043
